# Procedure summary: MTT cytotoxicity on normal cells
# Format: cell-based
# Cond: human, WI-38 cells (normal lung fibroblasts), WI-38 normal cells, mean ± SD of three experiments, read-out: IC50 (cytotoxic activity)
Here the recorded pIC50 is given for each entry.
Lab note: report pIC50 as minus log10 of the concentration in molar units, number only.

Guide cases for pIC50, answers given:
C[C@H](Nc1ncnc2[nH]cnc12)c1cc2cccc(Cl)c2c(=O)n1-c1ccccc1 :: 4.64
N#Cc1c(N)nc(S)nc1-c1ccc(Cl)cc1Cl :: 4.36

Asked: Requested read-out: pIC50. Entry: "C#Cc1cccc(Nc2ncnc3cc(OCCOC)c(OCCOC)cc23)c1"
Given back: 4.64
